Target: UniProt P42336
Experiment: Lipid kinase screening (ADP-Glo), PI3K a
Format: biochemical

{"columns": ["Compound", "Subject Of Test", "inhibition at 10 µM / %"],
 "data": [
  ["CN(C)c1cc[n+](CCCCCCCCCCCCCC[n+]2ccc(N(C)C)cc2)cc1.[Br-].[Br-] [CK14, reference compound]", "UniProt P42336", -1.9],
  ["CN(C)c1cc[n+](CCCCCCCCCCCCCC[n+]2ccc(N3CCNCC3)cc2)cc1", "UniProt P42336", -5.4],
  ["CN(C)c1cc[n+](CCCCCCCCCCCCCC[n+]2ccc(N3CCN(C(=O)CSC4CC(=O)N(CCC(=O)NCCCCCC(=O)NCCCCC(NC(=O)NC(CCC(=O)O)C(=O)O)C(=O)O)C4=O)CC3)cc2)cc1 (centres unmarked)", "UniProt P42336", -2.6],
  ["CC(=O)NCCCCC(NC(=O)OC(C)(C)C)C(=O)N1CCN(c2cc[n+](CCCCCCCCCCCCCC[n+]3ccc(N(C)C)cc3)cc2)CC1 (centres unmarked)", "UniProt P42336", -1],
  ["CN(C)c1cc[n+](CCCCCCCCCCCC[n+]2ccc(N(C)C)cc2)cc1", "UniProt P42336", 1]
]}

###

Molecular target: PI3K g (Homo sapiens, UniProt P48736)
Sequence (P48736 whole entry): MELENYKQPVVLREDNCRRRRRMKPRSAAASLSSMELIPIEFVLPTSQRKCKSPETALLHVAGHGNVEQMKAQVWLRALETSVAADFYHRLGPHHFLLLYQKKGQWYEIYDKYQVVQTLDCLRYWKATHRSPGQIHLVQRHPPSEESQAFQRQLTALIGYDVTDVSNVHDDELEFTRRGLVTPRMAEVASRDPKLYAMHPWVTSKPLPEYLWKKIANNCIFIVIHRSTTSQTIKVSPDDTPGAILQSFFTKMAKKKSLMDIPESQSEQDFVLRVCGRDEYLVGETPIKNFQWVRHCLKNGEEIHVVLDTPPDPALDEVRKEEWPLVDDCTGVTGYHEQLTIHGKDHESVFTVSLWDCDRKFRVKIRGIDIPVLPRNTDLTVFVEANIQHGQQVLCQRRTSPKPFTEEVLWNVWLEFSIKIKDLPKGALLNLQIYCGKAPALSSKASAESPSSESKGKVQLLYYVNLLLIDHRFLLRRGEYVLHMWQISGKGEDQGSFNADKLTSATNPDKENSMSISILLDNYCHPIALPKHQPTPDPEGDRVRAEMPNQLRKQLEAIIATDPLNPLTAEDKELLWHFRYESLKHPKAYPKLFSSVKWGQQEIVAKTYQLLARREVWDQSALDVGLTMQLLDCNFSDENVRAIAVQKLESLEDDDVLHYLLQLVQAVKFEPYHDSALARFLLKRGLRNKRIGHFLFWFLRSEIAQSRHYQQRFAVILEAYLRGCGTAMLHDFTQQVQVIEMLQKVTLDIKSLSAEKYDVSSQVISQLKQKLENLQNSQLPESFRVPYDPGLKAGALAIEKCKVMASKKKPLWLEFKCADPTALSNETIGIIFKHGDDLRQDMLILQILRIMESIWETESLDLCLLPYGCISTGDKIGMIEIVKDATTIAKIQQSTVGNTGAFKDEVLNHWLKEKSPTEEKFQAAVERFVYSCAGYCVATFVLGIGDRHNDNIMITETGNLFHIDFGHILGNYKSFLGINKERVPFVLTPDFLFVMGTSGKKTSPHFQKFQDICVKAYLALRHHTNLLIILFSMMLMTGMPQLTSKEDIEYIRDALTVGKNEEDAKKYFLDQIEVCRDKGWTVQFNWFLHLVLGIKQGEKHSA
Test: Lipid kinase screening (ADP-Glo), PI3K g
Format: biochemical
Note to self: values exactly at 5% are Satisfied. So inhibition at 10 µM at or above 5% is Satisfied, below is Not satisfied.

{"columns": ["Compound", "Subject Of Test", "Assigned Class"],
 "data": [
  ["CC(=O)NCCCCC(NC(=O)OC(C)(C)C)C(=O)N1CCN(c2cc[n+](CCCCCCCCCCCCCC[n+]3ccc(N(C)C)cc3)cc2)CC1 (centres unmarked)", "PI3K g (Homo sapiens, UniProt P48736)", "Not satisfied"],
  ["CN(C)c1cc[n+](CCCCCCCCCCCCCC[n+]2ccc(N3CCNCC3)cc2)cc1", "PI3K g (Homo sapiens, UniProt P48736)", "Satisfied"],
  ["CN(C)c1cc[n+](CCCCCCCCCCCCCC[n+]2ccc(N(C)C)cc2)cc1.[Br-].[Br-] [CK14, reference compound]", "PI3K g (Homo sapiens, UniProt P48736)", "Satisfied"],
  ["CN(C)c1cc[n+](CCCCCCCCCCCCCC[n+]2ccc(N3CCN(C(=O)CSC4CC(=O)N(CCC(=O)NCCCCCC(=O)NCCCCC(NC(=O)NC(CCC(=O)O)C(=O)O)C(=O)O)C4=O)CC3)cc2)cc1 (centres unmarked)", "PI3K g (Homo sapiens, UniProt P48736)", "Not satisfied"]
]}

###

Test: Human microsomal metabolic stability assay
Assay type: in vitro ADME
Details: human liver microsome S9
Description: The ADME study for ICL-CCIC-0019, CK14, CK145 (5), CK146 (4) and CK147 (8) was performed by Charles River Drug Discovery Services (Essex, UK). The predicted in vitro pharmacokinetic characteristics of compounds were evaluated by four ADME assays, namely kinetic solubility assay, metabolic stability assay using human liver microsome S9, permeability and efflux study using the Caco-2 cell line, and matrix stability assay using fasted state simulated gastric fluid (FaSSGF). […]
Recorded Metric: Human Microsomal Metabolic Stability: Remaining %

{"columns": ["Molecule", "Reported Measurement"],
 "data": [
  ["CN(C)c1cc[n+](CCCCCCCCCCCCCC[n+]2ccc(N(C)C)cc2)cc1.[Br-].[Br-] [CK14, reference compound]", "101%"],
  ["CN(C)c1cc[n+](CCCCCCCCCCCC[n+]2ccc(N(C)C)cc2)cc1 [ICL-CCIC-0019]", "92%"],
  ["CN(C)c1cc[n+](CCCCCCCCCCCCCC[n+]2ccc(N3CCNCC3)cc2)cc1 [CK146]", "127%"],
  ["CC(=O)NCCCCC(NC(=O)OC(C)(C)C)C(=O)N1CCN(c2cc[n+](CCCCCCCCCCCCCC[n+]3ccc(N(C)C)cc3)cc2)CC1 (stereo not shown) [CK145]", "2%"]
]}

###

Documented inhibition at 10 µM across a set of molecules
Target: UniProt Q9NYA1
Sequence (Q9NYA1 whole entry): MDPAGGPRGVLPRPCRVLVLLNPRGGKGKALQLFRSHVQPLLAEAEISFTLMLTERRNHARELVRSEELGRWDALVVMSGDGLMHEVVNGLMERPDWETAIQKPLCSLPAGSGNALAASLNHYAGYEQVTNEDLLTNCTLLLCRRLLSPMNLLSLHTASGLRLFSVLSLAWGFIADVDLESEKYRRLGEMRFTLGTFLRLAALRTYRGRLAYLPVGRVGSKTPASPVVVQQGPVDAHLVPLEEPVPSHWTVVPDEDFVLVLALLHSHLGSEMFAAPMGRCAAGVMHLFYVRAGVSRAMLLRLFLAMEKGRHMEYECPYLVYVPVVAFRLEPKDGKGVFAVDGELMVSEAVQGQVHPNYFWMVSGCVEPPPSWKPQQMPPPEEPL
Assay: Lipid kinase screening (ADP-Glo), SPHK1
Format: biochemical

{"columns": ["Molecule", "inhibition at 10 µM"],
 "data": [
  ["CN(C)c1cc[n+](CCCCCCCCCCCCCC[n+]2ccc(N(C)C)cc2)cc1.[Br-].[Br-] [CK14, reference compound]", "-10.1%"],
  ["CN(C)c1cc[n+](CCCCCCCCCCCCCC[n+]2ccc(N3CCNCC3)cc2)cc1", "2.1%"],
  ["CN(C)c1cc[n+](CCCCCCCCCCCC[n+]2ccc(N(C)C)cc2)cc1", "-3.7%"],
  ["CN(C)c1cc[n+](CCCCCCCCCCCCCC[n+]2ccc(N3CCN(C(=O)CSC4CC(=O)N(CCC(=O)NCCCCCC(=O)NCCCCC(NC(=O)NC(CCC(=O)O)C(=O)O)C(=O)O)C4=O)CC3)cc2)cc1 (centres unmarked)", "-1%"],
  ["CC(=O)NCCCCC(NC(=O)OC(C)(C)C)C(=O)N1CCN(c2cc[n+](CCCCCCCCCCCCCC[n+]3ccc(N(C)C)cc3)cc2)CC1 (centres unmarked)", "0.6%"]
]}

###

Documented inhibition at 10 µM across a set of molecules
Target: PI3Ka E545K + p85 (Homo sapiens, UniProt P42336, E545K)
Sequence (P42336 whole entry E545K): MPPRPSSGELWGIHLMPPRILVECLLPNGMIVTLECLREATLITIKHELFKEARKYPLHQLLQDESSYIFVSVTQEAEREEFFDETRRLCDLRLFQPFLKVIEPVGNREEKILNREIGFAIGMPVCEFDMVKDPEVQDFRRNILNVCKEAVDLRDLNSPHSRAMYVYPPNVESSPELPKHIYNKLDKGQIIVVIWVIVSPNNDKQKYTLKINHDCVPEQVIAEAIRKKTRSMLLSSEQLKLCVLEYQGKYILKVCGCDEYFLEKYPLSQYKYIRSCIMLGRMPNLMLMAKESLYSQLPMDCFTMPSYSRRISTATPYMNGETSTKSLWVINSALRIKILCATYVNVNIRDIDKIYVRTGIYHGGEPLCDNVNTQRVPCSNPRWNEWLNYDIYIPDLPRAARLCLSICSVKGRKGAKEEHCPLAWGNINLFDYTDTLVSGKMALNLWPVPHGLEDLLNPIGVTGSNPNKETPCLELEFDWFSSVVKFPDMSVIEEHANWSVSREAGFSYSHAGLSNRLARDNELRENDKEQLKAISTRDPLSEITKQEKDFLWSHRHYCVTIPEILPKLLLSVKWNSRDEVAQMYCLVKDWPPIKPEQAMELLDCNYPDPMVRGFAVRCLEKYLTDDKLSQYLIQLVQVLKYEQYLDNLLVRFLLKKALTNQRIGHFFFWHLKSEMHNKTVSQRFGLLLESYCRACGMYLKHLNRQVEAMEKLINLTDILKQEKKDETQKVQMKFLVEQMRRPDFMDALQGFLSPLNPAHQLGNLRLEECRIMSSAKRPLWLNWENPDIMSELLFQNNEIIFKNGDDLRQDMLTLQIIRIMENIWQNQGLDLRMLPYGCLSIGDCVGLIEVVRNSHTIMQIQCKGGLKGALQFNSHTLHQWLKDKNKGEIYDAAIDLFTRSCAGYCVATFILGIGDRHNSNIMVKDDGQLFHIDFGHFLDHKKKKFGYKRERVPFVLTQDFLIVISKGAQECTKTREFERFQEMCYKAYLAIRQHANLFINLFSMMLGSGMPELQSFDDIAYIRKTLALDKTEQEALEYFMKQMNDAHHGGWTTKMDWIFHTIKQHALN
Sequence (P27986 whole entry partner): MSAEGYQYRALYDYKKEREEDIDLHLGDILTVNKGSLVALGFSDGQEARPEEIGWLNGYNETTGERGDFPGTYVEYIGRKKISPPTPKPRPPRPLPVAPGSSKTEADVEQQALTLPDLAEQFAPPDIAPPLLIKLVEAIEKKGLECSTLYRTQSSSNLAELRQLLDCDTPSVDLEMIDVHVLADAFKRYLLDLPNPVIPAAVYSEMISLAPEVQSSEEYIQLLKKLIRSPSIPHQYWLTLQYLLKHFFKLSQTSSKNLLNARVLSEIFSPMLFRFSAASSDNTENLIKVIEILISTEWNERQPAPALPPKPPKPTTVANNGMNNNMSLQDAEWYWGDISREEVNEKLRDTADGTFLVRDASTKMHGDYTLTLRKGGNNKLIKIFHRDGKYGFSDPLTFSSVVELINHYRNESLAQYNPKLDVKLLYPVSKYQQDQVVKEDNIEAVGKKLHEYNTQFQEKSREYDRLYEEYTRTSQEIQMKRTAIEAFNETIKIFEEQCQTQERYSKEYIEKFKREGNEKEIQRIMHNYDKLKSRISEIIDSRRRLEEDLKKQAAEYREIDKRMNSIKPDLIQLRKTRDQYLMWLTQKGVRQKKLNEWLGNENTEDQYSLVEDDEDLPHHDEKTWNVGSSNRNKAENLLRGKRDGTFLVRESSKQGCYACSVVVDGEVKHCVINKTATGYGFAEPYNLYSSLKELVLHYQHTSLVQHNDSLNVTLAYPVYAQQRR
Experiment: Lipid kinase screening (ADP-Glo), PI3Ka E545K + p85
Assay type: biochemical
Recorded Metric: inhibition at 10 µM

{"columns": ["Molecule", "Subject Of Test", "Reported Measurement"],
 "data": [
  ["CC(=O)NCCCCC(NC(=O)OC(C)(C)C)C(=O)N1CCN(c2cc[n+](CCCCCCCCCCCCCC[n+]3ccc(N(C)C)cc3)cc2)CC1 (centres unmarked)", "PI3Ka E545K + p85 (Homo sapiens, UniProt P42336, E545K)", "-1.8%"],
  ["CN(C)c1cc[n+](CCCCCCCCCCCCCC[n+]2ccc(N(C)C)cc2)cc1.[Br-].[Br-] [CK14, reference compound]", "PI3Ka E545K + p85 (Homo sapiens, UniProt P42336, E545K)", "-15.2%"],
  ["CN(C)c1cc[n+](CCCCCCCCCCCCCC[n+]2ccc(N3CCNCC3)cc2)cc1", "PI3Ka E545K + p85 (Homo sapiens, UniProt P42336, E545K)", "-1%"],
  ["CN(C)c1cc[n+](CCCCCCCCCCCCCC[n+]2ccc(N3CCN(C(=O)CSC4CC(=O)N(CCC(=O)NCCCCCC(=O)NCCCCC(NC(=O)NC(CCC(=O)O)C(=O)O)C(=O)O)C4=O)CC3)cc2)cc1 (centres unmarked)", "PI3Ka E545K + p85 (Homo sapiens, UniProt P42336, E545K)", "22.8%"],
  ["CN(C)c1cc[n+](CCCCCCCCCCCC[n+]2ccc(N(C)C)cc2)cc1", "PI3Ka E545K + p85 (Homo sapiens, UniProt P42336, E545K)", "-6.1%"]
]}

###

Biological target: SPHK2 (Homo sapiens, UniProt Q9NRA0)
Sequence (Q9NRA0 whole entry): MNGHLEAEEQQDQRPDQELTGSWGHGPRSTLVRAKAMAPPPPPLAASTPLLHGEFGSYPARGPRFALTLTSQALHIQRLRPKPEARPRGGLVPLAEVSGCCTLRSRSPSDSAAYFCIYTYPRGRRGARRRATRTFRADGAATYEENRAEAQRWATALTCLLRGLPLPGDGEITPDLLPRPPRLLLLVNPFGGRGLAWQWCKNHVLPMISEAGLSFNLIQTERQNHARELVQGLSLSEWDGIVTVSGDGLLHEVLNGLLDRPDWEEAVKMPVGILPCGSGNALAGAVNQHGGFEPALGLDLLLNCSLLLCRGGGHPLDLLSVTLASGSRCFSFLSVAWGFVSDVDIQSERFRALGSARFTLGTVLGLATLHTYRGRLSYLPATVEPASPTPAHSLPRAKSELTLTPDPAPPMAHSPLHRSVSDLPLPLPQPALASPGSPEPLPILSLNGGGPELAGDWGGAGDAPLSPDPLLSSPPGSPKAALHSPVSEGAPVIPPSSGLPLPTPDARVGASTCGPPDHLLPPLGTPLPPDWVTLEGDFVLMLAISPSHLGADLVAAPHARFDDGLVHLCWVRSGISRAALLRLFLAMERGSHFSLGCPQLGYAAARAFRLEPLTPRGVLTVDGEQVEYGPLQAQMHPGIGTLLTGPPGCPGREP
Test: Lipid kinase screening (ADP-Glo), SPHK2
Assay type: biochemical

{"columns": ["Compound", "inhibition at 10 µM"],
 "data": [
  ["CC(=O)NCCCCC(NC(=O)OC(C)(C)C)C(=O)N1CCN(c2cc[n+](CCCCCCCCCCCCCC[n+]3ccc(N(C)C)cc3)cc2)CC1 (centres unmarked) [CK145]", "13.2%"],
  ["CN(C)c1cc[n+](CCCCCCCCCCCC[n+]2ccc(N(C)C)cc2)cc1 [ICL-CCIC-0019]", "22.4%"],
  ["CN(C)c1cc[n+](CCCCCCCCCCCCCC[n+]2ccc(N3CCNCC3)cc2)cc1 [CK146]", "10%"],
  ["CN(C)c1cc[n+](CCCCCCCCCCCCCC[n+]2ccc(N(C)C)cc2)cc1.[Br-].[Br-] [CK14, reference compound]", "16%"],
  ["CN(C)c1cc[n+](CCCCCCCCCCCCCC[n+]2ccc(N3CCN(C(=O)CSC4CC(=O)N(CCC(=O)NCCCCCC(=O)NCCCCC(NC(=O)NC(CCC(=O)O)C(=O)O)C(=O)O)C4=O)CC3)cc2)cc1 (centres unmarked) [CK147]", "-3.7%"]
]}

###

Documented inhibition at 10 µM across a set of compounds
Target: DGK b (Homo sapiens, UniProt Q9Y6T7)
Test: Lipid kinase screening (ADP-Glo), DGK b
Assay type: biochemical
Recorded Metric: inhibition at 10 µM (%)

{"columns": ["Compound", "Reported Measurement"],
 "data": [
  ["CN(C)c1cc[n+](CCCCCCCCCCCCCC[n+]2ccc(N(C)C)cc2)cc1.[Br-].[Br-] [CK14, reference compound]", 11.9],
  ["CC(=O)NCCCCC(NC(=O)OC(C)(C)C)C(=O)N1CCN(c2cc[n+](CCCCCCCCCCCCCC[n+]3ccc(N(C)C)cc3)cc2)CC1 (centres unmarked)", 8],
  ["CN(C)c1cc[n+](CCCCCCCCCCCCCC[n+]2ccc(N3CCNCC3)cc2)cc1", 1.1],
  ["CN(C)c1cc[n+](CCCCCCCCCCCC[n+]2ccc(N(C)C)cc2)cc1", 8.6],
  ["CN(C)c1cc[n+](CCCCCCCCCCCCCC[n+]2ccc(N3CCN(C(=O)CSC4CC(=O)N(CCC(=O)NCCCCCC(=O)NCCCCC(NC(=O)NC(CCC(=O)O)C(=O)O)C(=O)O)C4=O)CC3)cc2)cc1 (centres unmarked)", -4.9]
]}
